molecular target: Xanthine oxidase (XO) (Bos taurus); construct: purchased Sigma-Aldrich X4875; assay: XO inhibitory assay (spectrophotometric quantification of uric acid formation at 295 nm); assay type: biochemical; conditions: read-out: XO inhibition (%)
Threshold check on inhibition at 30 µM: at or above 70% gives Satisfied, strictly below gives Not satisfied.

# example entries with known answers
{"smiles record": "CCn1c(O)c(C(c2cccc(O)c2)c2c(O)n(CC)c(=S)n(CC)c2=O)c(=O)n(CC)c1=S", "label value": "Satisfied"}
{"smiles record": "CCn1c(O)c(C(c2ccc(N(C)C)cc2[N+](=O)[O-])c2c(O)n(CC)c(=S)n(CC)c2=O)c(=O)n(CC)c1=S", "label value": "Satisfied"}
{"smiles record": "CCn1c(O)c(C(c2ccc(OC)cc2)c2c(O)n(CC)c(=S)n(CC)c2=O)c(=O)n(CC)c1=S", "label value": "Not satisfied"}
{"smiles record": "O=c1[nH]c(=S)[nH]c(O)c1C(c1ccc([N+](=O)[O-])cc1)c1c(O)[nH]c(=S)[nH]c1=O", "label value": "Not satisfied"}
{"smiles record": "CCn1c(O)c(C(c2ccccc2[N+](=O)[O-])c2c(O)n(CC)c(=S)n(CC)c2=O)c(=O)n(CC)c1=S", "label value": "Satisfied"}
{"smiles record": "CCn1c(O)c(C(c2ccc(NC(C)=O)cc2)c2c(O)n(CC)c(=S)n(CC)c2=O)c(=O)n(CC)c1=S", "label value": "Not satisfied"}

Now consider the entry below.
inhibition at 30 µM >= 70% for "CCn1c(O)c(C(c2cc3c(cc2[N+](=O)[O-])OCO3)c2c(O)n(CC)c(=S)n(CC)c2=O)c(=O)n(CC)c1=S" ?
Satisfied

----------
test: Cytotoxicity/antiproliferative assay (MTT) on MCF-7; type: cell-based; details: human, MCF-7 cells (breast adenocarcinoma), read-out: Cytotoxicity (% cell viability at 30 µM) MCF-7
Cut-off 90% on viability at 72 h, 30 µM: below means 1.0, at or above means 0.0.

Lab note: confirm whether the reported viability at 72 h, 30 µM for this molecule is below 90%, equality not counting. molecule: O=c1[nH]cc(F)c(=O)[nH]1 [Compound 5-FU, 5-fluorouracil, reference compound]
1.0

Given the entry "CCn1c(O)c(C(c2ccc(OC)cc2)c2c(O)n(CC)c(=S)n(CC)c2=O)c(=O)n(CC)c1=S" , would its reported viability at 72 h, 30 µM be below 90%?
0.0

Please check: viability at 72 h, 30 µM for "O=c1[nH]c(=S)[nH]c(O)c1C(c1ccc([N+](=O)[O-])cc1)c1c(O)[nH]c(=S)[nH]c1=O" , strictly under 90% or not?
0.0

Please let me know if "CCn1c(O)c(C(c2ccccc2[N+](=O)[O-])c2c(O)n(CC)c(=S)n(CC)c2=O)c(=O)n(CC)c1=S" shows viability at 72 h, 30 µM below 90%.
0.0

----------
Biological target: Xanthine oxidase (XO) (Bos taurus, UniProt P80457)
Construct: purchased Sigma-Aldrich X4875
Sequence (P80457 whole entry): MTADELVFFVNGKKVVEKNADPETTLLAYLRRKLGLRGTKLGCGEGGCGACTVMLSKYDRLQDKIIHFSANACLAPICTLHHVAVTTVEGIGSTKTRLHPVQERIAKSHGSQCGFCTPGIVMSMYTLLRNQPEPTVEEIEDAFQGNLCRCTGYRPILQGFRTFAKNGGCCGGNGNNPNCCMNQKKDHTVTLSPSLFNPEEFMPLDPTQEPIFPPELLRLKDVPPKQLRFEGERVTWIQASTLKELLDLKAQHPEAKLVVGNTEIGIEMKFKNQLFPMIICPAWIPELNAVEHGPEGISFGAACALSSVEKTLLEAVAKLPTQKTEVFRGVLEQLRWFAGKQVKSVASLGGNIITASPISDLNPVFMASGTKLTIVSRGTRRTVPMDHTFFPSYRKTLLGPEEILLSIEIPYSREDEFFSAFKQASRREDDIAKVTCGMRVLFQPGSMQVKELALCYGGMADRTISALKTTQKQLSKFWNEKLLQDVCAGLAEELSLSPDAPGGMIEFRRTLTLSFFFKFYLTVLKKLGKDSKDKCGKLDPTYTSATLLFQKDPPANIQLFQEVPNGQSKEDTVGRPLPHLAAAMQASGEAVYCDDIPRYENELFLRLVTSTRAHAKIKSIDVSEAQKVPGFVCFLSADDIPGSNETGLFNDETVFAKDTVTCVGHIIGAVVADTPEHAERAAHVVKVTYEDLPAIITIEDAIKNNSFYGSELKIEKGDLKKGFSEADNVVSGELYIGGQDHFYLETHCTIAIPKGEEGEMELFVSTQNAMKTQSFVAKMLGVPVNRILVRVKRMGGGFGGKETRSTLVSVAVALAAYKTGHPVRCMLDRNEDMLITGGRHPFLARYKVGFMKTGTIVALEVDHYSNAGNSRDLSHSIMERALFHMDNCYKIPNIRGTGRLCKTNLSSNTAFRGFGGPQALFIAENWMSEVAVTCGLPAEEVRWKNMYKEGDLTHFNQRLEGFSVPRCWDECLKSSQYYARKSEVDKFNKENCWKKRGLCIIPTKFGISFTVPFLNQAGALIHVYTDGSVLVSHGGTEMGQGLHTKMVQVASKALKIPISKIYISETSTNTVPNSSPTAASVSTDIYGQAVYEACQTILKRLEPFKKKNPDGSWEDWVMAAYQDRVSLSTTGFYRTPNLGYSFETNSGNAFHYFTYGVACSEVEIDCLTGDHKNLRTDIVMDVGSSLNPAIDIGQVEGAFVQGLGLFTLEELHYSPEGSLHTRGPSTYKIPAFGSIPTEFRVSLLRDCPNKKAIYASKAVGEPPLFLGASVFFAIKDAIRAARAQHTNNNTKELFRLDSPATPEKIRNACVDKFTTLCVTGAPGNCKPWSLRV
Experiment: XO inhibitory assay (spectrophotometric quantification of uric acid formation at 295 nm)
Format: biochemical
Details: read-out: XO inhibition (%)
Procedure: XO inhibitory and antioxidant assays were performed in triplicate while antiproliferative assay was conducted in quadruplicate. For each assay, at least two independent experiments were performed. […] The XO inhibitory activity was evaluated by spectrophotometric quantification of uric acid formation. […] The absorbance was recorded at a wavelength of 295 nm every minute for 10 min. […] All in vitro results are expressed as mean values ± standard deviation (SD) of at least two independent determinations. […]
Threshold rule: inhibition at 5 µM greater than or equal to 60% is true (1); below that, false (0).

Examples from the recorded data:
{"molecule": "Oc1ncnc2[nH]ncc12 [Allo, allopurinol, reference compound]", "label value": "false (0)"}
{"molecule": "Cc1nc(-c2ccc(OCC(C)C)c(C#N)c2)sc1C(=O)O [Febuxostat, febuxostat, reference compound]", "label value": "true (1)"}
{"molecule": "CCn1c(O)c(C(c2ccc(C#N)cc2)c2c(O)n(CC)c(=S)n(CC)c2=O)c(=O)n(CC)c1=S", "label value": "false (0)"}
{"molecule": "CCn1c(O)c(C(c2ccc(N(C)C)cc2[N+](=O)[O-])c2c(O)n(CC)c(=S)n(CC)c2=O)c(=O)n(CC)c1=S", "label value": "false (0)"}
{"molecule": "CCn1c(O)c(C(c2ccc(Br)cc2)c2c(O)n(CC)c(=S)n(CC)c2=O)c(=O)n(CC)c1=S", "label value": "true (1)"}
{"molecule": "CCn1c(O)c(C(c2ccccc2[N+](=O)[O-])c2c(O)n(CC)c(=S)n(CC)c2=O)c(=O)n(CC)c1=S", "label value": "false (0)"}

Next:
Given "CCn1c(O)c(C(c2ccc([N+](=O)[O-])cc2)c2c(O)n(CC)c(=S)n(CC)c2=O)c(=O)n(CC)c1=S" , state whether its inhibition at 5 µM is at least 60%.
false (0)
